This collection of values is drawn from the supplement of paper PMC10567573.

B1: SLC35F2 (parent)
chain: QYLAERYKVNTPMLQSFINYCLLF

# Variants of: B1
# experiment.summary: protein stability index of a GFP-peptide fusion (GPS, HEK-293T) (PSI 1-6); higher = more stable;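 also: lentivirally expressed fusions sorted by FACS into six bins by GFP to DsRed ratio, PSI derived from sequencing read proportions per bin multiplied by bin number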
# applied.conditions: c terminus: a fixed tail appended
Documented protein stability index across a set of variants
Give a plain numeric answer without units written out.

Solved cases (10 shown):
>>> print(df.to_string())
   mutation_name   val
0           I18K  1.99
1           M13R  2.64
2           M13A  3.48
3            V9C  2.68
4           I18Q  2.48
5            Y7A  3.17
6            Y7W  1.84
7           F24M   3.6
8           I18A  1.93
9           N10D  2.83

// switching to the query variant
Which protein stability index reading was recorded for the variant "E5H" ?
3.1
